Overview of recorded pIC50 for various compounds
test-description: Antiproliferative activity against human DND41 cells assessed as reduction in cell viability incubated for 72 hrs by IncuCyte live-cell imaging assay
Assay type: functional, cell-based
condition-set: DND41, 72 h
A value of pIC50 is the negative decimal logarithm of a concentration given in moles per litre.

Example results:
INSERT INTO assay_data (compound, result_value) VALUES
  ('Nc1ncnn2c([C@@H]3O[C@H](CO)[C@@H](O)[C@H]3O)cc(C#Cc3cccs3)c12', 4.48),
  ('Nc1ncnn2c([C@@H]3O[C@H](CO)[C@@H](O)[C@H]3O)cc(-c3ccoc3)c12', 7.00),
  ('Nc1ncnn2c([C@@H]3O[C@H](CO)[C@@H](O)[C@H]3O)cc(-c3ccsc3)c12', 4.07),
  ('Nc1ncnn2c([C@@H]3O[C@H](CO)[C@@H](O)[C@H]3O)cc(-c3ccc(F)cc3)c12', 4.41),
  ('Nc1ncnn2c([C@@H]3O[C@H](CO)[C@@H](O)[C@H]3O)cc(C#Cc3ccccc3)c12', 4.20),
  ('Nc1ncnn2c([C@@H]3O[C@H](CO)[C@@H](O)[C@H]3O)cc(/C=C/c3ccccc3)c12', 5.77),
  ('Nc1ncnn2c([C@@H]3O[C@H](CO)[C@@H](O)[C@H]3O)cc(C#CC3CC3)c12', 7.40),
  ('Nc1ncnn2c([C@@H]3O[C@H](CO)[C@@H](O)[C@H]3O)cc(-c3ccc(Cl)cc3)c12', 4.45),
  ('Nc1ncnn2c([C@@H]3O[C@H](CO)[C@@H](O)[C@H]3O)cc(-c3ccc(F)cc3F)c12', 4.17),
  ('CCCC#Cc1cc([C@@H]2O[C@H](CO)[C@@H](O)[C@H]2O)n2ncnc(N)c12', 7.10);

Now for another entry.
// query Provide one value: measured pIC50 of `COc1ccc(-c2cc([C@@H]3O[C@H](CO)[C@@H](O)[C@H]3O)n3ncnc(N)c23)cc1`
// result 4.38
